From: patent US8153781B2

target: hA2A AR (Homo sapiens); experiment: Functional assay at hA2A AR (Table 3); conditions: Table 3 functional assay
Sequence (P29274 whole entry): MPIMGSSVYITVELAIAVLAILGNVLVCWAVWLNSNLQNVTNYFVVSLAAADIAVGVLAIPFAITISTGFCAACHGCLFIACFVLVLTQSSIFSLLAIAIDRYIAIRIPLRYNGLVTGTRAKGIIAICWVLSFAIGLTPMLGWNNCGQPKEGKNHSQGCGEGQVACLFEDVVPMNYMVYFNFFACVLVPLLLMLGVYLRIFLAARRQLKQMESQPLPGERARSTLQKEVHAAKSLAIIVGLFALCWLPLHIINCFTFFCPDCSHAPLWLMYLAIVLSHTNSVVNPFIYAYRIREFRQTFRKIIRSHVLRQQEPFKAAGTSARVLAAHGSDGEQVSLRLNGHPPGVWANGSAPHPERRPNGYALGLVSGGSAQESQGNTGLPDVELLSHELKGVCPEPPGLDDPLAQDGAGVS
Test readout: EC50 (nM)
Unit nM implied. Number only.

# input Give a short answer stating reported EC50 for CCNC(=O)[C@H]1OC(n2cnc3c(N)nc(NCCc4ccc(CCC(=O)NCCNC(C)=O)cc4)nc32)[C@@H](O)C1O (stereo partly shown) [compound 16] .
# output 51

###

target: UniProt P29274
Test readout: pKi
Entry type: numeric. Quantity: pKi, the -log10 of concentration in molar units.

# input # lookup: UniProt P29274 pKi, key = NCCNC(=O)Cc1ccc(NC(=O)Cc2ccc(Nc3ncnc4c3ncn4[C@@H]3O[C@H](CO)[C@@H](O)[C@H]3O)cc2)cc1 [compound 101, reference compound]
# output 6.43
